Test system: TU-5 tumor cells
procedure_text: Macrophage cytotoxic activity towards TU-5 tumor cells (peritoneal macrophages of i.p. treated mice, MTT)
Format: cell-based
experimental_parameters: Effector:Target 5:1; 10 mg/kg/i.p.; 7 days before cell collection; 48 hours incubation
Method: The experimental procedure to evaluate this activity is as follows: groups of 4 mice are treated i.p. with the tested compounds and then, seven days later, peritoneal cells are collected and plated for 2 hours at 37° C. […] At the end of this period the target cells viability is evaluated by the MTT colorimetric method (Abstracts of VIII European Immunology Meeting, Zagreb, 1987, pag 94 n°2105) based on the optical density (OD) evaluation at 570 nm. […]
outcome_measure: Macrophage cytotoxic activity (% inhibition of TU-5 growth)

{"compound": "N#CC(C(=O)Nc1ccccc1)C(=O)c1nn(-c2ccccc2)c2c1sc1ccccc12 (stereo not shown)", "measured_result": "82%"}
{"compound": "N#CC(C(=O)Nc1ccc(F)cc1)C(=O)c1nn(-c2ccccc2)c2c1Cc1ccccc1-2 (stereo not shown)", "measured_result": "77%"}
{"compound": "N#CC(C(=O)Nc1cccc(Cl)c1)C(=O)c1nn(-c2ccccc2)c2c1Cc1ccccc1-2 (stereo not shown)", "measured_result": "79%"}
{"compound": "N#CC(C(=O)Nc1ccccc1)C(=O)c1nn(-c2ccccc2)c2c1Cc1ccccc1-2 (stereo not shown)", "measured_result": "93%"}
